test: Dissociation of chelates in aq. 0.1M HCl at 80° C. (acid decomplexation kinetic inertness) (Chart 19); assay type: physicochemical; settings: 1 week
The following molecules are shown together with reported fraction of intact chelate values.
Please give a number only; it is taken to be in %.

Use these answered entries as a reference point.
1. O=C1C[N@@]2CC[N@]3CC[N@@](CC[N@](CC2)Cc2cccc(n2)-c2cnnn2Cc2cc(-c4ccccc4)cc(n2)C3)CC(=O)[O][Y][O]1 [TD649]; 100
2. O=C1C[N@@]2CC[N@]3CC[N@@](CC[N@](CC2)Cc2cccc(n2)-c2cnnn2Cc2cc(-c4ccccc4)cc(n2)C3)CC(=O)[O][Dy][O]1 [TD866]; 100
3. O=C1C[N@@]2CC[N@]3CC[N@@](CC[N@](CC2)Cc2cccc(n2)-c2cnnn2Cc2cc(-c4ccccc4)cc(n2)C3)CC(=O)[O][La][O]1 [TD651]; 0
4. O=C([O-])CN1CCN2CCN(CC(=O)[O-])CCN(CC1)Cc1cccc(n1)-c1cnnn1Cc1cc(-c3ccccc3)cc(n1)C2.[Ca+2] [TD863]; 0
5. O=C1C[N@@]2CC[N@]3CC[N@@](CC[N@](CC2)Cc2cccc(n2)-c2cnnn2Cc2cc(-c4ccccc4)cc(n2)C3)CC(=O)[O][Ho][O]1 [TD648]; 100

**Q:** Can you look up the measured fraction of intact chelate of O=C1C[N@@]2CC[N@]3CC[N@@](CC[N@](CC2)Cc2cccc(n2)-c2cn(nn2)Cc2cc(-c4ccccc4)cc(n2)C3)CC(=O)[O][Lu][O]1 [TD874] for me?
**A:** 0

**Q:** Fill in the blank: the reported fraction of intact chelate of O=C1C[N@@]2CC[N@]3CC[N@@](CC[N@](CC2)Cc2cccc(n2)-c2cnnn2Cc2cc(-c4ccccc4)cc(n2)C3)CC(=O)[O][Sm][O]1 [TD867] is ____.
**A:** 35

**Q:** Requested field: fraction of intact chelate. Item: O=C1C[N@@]2CC[N@]3CC[N@@](CC[N@](CC2)Cc2cccc(n2)-c2cn(nn2)Cc2cc(-c4ccccc4)cc(n2)C3)CC(=O)[O][Cd][O]1 [TD900]
**A:** 0
